Reference for the values: PubChem BioAssay

# assay.procedure: Restrictive medium S. cerevisiae growth inhibition, OD615, pilot screen of yeast lifespan reduction project, restrictive growth control (AID 706);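 also: modified DeaD lifespan yeast strain shifted to restrictive glucose medium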
# run.conditions: OD615, 48 h, at 10 µM, active compounds read high
test.readout: growth inhibition (%)

>>> result("CCC(C)NC(=O)CS(=O)Cc1nc(-c2ccccc2C)oc1C (stereo not drawn)")
12.7
>>> result("COc1cccc(CNC(=O)c2ccc(NC(=O)C3CCCO3)cc2)c1 (stereo not drawn)")
-16.5
>>> result("CNC(=O)c1c(NC(=O)c2ccc(S(=O)(=O)N3CCOCC3)cc2)sc2c1CCC2")
-0.055
>>> result("O=C(NCC1OCCc2ccccc21)c1ccco1 (stereo not drawn)")
-8.18
>>> result("O=c1[nH]c2c(s1)C=Nc1ccccc1N2")
3.4
>>> result("Cc1cc2cc(CCNC(=O)CC(C)(C)C)c(=O)[nH]c2cc1C")
-21
>>> result("COCCNC(=O)c1cc(-c2ccc(Cl)c(Cl)c2)on1")
-1.81
>>> result("CCOC(=O)c1ccccc1NC(=O)CN(c1ccccc1OCC)S(C)(=O)=O")
1.95
>>> result("Cc1nc2sc(C(c3ccc(C(C)C)cc3)N3CCN(CCO)CC3)c(O)n2n1 (stereo not drawn)")
-9.61
>>> result("CCOc1ccc(N(CC(=O)N2CCCC2)S(=O)(=O)c2c(C)noc2C)cc1")
3.47
>>> result("CCCCN(CC)CCNC(=O)c1cc2c(=O)n(C)c3ccccc3c2n1C")
-6.07
>>> result("CC1(C)Oc2ccc3ccc(=O)oc3c2-c2cnoc21")
5.33
>>> result("COc1cccc(N2C(=O)C3ON(c4ccccc4)C(c4cccs4)C3C2=O)c1 (stereo not drawn)")
15.5
>>> result("COC(=O)c1ccccc1NC(=O)CSc1nc(N)cc(N)n1")
5.95
>>> result("O=C(NCCNC(=O)c1ccc(Br)o1)c1ccc(Br)o1")
4.26
>>> result("CC(=O)c1ccc(C(=O)Nc2ccc(N3CCOCC3)cc2)cc1")
2.98
>>> result("Cn1cccc1Cc1nnc(SCC(=O)NCc2ccccc2Cl)n1-c1ccc(F)cc1")
9.87
>>> result("C=C(C)c1cccc(C(C)(C)NC(=O)N2CCN(c3ccccn3)CC2)c1")
0.485
>>> result("CC1(C)Cc2c(c(N3CCOCC3)nc3sc(C(=O)N4CCCCC4)c(N)c23)CO1")
29.3
>>> result("c1nc(N2CCNCC2)c2sc3nc(N4CCOCC4)c4c(c3c2n1)CCC4")
6.55
>>> result("COc1ccc(OC)c(N(CC(=O)Nc2ccc3c(c2)OCCO3)S(C)(=O)=O)c1")
-3.32
>>> result("CCCn1c(CNc2ccc(Br)cc2)nc2ccccc21")
-9.32
>>> result("Cc1cc(OCC(=O)C(C)(C)C)c2c(C)c(C)c(=O)oc2c1")
-20.7
